// provenance: ChEMBL document CHEMBL4229573

Give measured fold change (FC) for each item. Keep answers brief.
biological target: Son of sevenless homolog 1 (Homo sapiens); assay: Activation of SOS1 in human HeLa cells assessed as effect on RAS-GTP levels by measuring […] at 12.5 uM after 30 mins by active RAS pull-down assay relative to control; assay type: cell-based

Look over these answered cases.
| entry.smiles | experimental.readout | test.result |
| --- | --- | --- |
| C[C@@H](Nc1nc(Nc2ccc(F)c(Cl)c2)nc2ccccc12)C1CC1 | fold change (FC) | 0.53 |
| C[C@@H](Nc1nc(Nc2ccc(F)c(Cl)c2)nc2c(CN)cccc12)C1CC1 | fold change (FC) | 0.98 |
| C[C@@H](Nc1nc(Nc2ccc(F)c(Cl)c2)nc2c(C3=CCNCC3)cccc12)C1CC1 | fold change (FC) | 1.72 |

Okay, now this molecule:
Which value of fold change (FC) has been reported for C[C@@H](Nc1nc(Nc2ccc(F)c(Cl)c2)nc2c(CCN)cccc12)C1CC1 in the records?
0.97
